Molecular target: rat α3β4 nAChR (Rattus norvegicus, UniProt P04757+P12392)
Sequence (P04757 26-499 limits assumed): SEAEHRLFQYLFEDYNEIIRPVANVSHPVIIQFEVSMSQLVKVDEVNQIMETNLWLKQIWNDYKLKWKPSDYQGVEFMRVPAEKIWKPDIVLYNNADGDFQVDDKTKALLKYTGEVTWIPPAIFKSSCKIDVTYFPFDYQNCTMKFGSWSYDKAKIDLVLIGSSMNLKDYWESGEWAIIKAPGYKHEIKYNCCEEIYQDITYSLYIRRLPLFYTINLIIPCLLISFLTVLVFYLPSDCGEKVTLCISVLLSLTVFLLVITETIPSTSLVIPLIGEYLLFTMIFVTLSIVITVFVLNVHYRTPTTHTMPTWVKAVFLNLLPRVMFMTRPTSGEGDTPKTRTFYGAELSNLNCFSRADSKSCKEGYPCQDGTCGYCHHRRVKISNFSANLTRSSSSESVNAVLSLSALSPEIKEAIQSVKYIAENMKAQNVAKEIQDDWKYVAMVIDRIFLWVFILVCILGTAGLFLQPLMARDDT
Sequence (P12392 21-495 limits assumed): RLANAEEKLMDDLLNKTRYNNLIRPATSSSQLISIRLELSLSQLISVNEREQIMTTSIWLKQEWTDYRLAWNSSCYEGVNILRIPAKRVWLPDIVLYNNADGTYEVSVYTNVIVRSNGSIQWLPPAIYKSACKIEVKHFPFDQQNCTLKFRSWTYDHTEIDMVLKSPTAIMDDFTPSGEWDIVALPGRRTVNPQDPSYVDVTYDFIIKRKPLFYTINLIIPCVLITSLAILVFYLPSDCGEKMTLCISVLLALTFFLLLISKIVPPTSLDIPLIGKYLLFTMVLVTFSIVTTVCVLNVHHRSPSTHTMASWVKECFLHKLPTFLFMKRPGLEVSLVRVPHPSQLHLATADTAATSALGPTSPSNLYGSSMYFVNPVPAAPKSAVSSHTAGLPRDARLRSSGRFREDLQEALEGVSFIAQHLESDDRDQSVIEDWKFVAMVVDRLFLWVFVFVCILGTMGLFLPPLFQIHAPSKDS
Test: cell-based
Conditions: α3β4 IC50 (half-blocking dose)
Peptide text beside a SMILES is read from it.
Assay Readout: IC50

Query :: Entry CC[C@H](C)[C@@H]1NC(=O)[C@@H]2CCCN2C(=O)[C@H](CO)NC(=O)[C@H](CCSC)NC(=O)[C@H](C)NC(=O)[C@H](CO)NC(=O)[C@@H]2CSSC[C@H](NC(=O)CN)C(=O)N[C@@H](CSSC[C@@H](C(N)=O)NC1=O)C(=O)N[C@@H](CO)C(=O)N[C@@H](Cc1c[nH]cn1)C(=O)N[C@@H](C)C(=O)N[C@@H](C(C)C)C(=O)N2 [TxID[P6A]] (HELM PEPTIDE1{G.C.C.S.H.A.V.C.S.A.M.S.P.I.C.[am]}$PEPTIDE1,PEPTIDE1,2:R3-8:R3|PEPTIDE1,PEPTIDE1,3:R3-15:R3$$$V2.0) has what IC50?
Result :: > 10 µM
